target: opioid receptor (rat brain synaptosomal plasma membranes) (Rattus norvegicus); construct: from rat brain synaptosomal plasma membranes; from tissue; host or cells: rat brain synaptosomal plasma membranes; test: displacement of ^3H-dihydromorphine (^3H-DHM) from rat brain synaptosomal plasma membranes; type: binding; conditions: ^3H-DHM displacement
Sequence (P33535 whole entry): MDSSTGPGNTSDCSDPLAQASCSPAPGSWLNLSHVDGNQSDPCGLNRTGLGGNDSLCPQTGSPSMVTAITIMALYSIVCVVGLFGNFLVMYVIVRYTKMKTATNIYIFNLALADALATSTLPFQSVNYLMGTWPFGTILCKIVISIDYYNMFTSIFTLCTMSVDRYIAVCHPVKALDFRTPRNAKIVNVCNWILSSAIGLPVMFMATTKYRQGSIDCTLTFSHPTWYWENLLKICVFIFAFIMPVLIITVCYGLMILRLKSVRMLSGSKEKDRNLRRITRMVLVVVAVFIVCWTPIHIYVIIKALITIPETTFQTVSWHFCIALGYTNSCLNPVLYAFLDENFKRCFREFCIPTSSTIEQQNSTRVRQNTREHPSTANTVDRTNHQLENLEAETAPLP
For each record, write down the corresponding Hill coefficient.
Numbers only.

INSERT INTO measurements (smiles_representation, endpoint_value) VALUES
  ('O=C1OC2(c3ccc(O)cc3Oc3cc(O)ccc32)c2ccc(NC(=S)NN=C3CC[C@@]4(O)[C@H]5Cc6ccc(O)c7c6[C@@]4(CCN5CC4CC4)[C@H]3O7)cc21', 0.675),
  ('C=CCN1CC[C@]23c4c5ccc(O)c4O[C@H]2C(=NNC(=S)Nc2ccc4c(c2)C(=O)OC42c4ccc(N(C)C)cc4Oc4cc(N(C)C)ccc42)CC[C@@]3(O)[C@H]1C5', 1.09),
  ('CN1CC[C@]23c4c5ccc(O)c4O[C@H]2C(=NNC(=S)Nc2ccc4c(c2)C(=O)OC42c4ccc(O)cc4Oc4cc(O)ccc42)CC[C@@]3(O)[C@H]1C5', 0.989);

## Input Kindly state the measured Hill coefficient obtained for C=CCN1CC[C@]23c4c5ccc(O)c4O[C@H]2C(=NNC(=S)Nc2ccc4c(c2)C(=O)OC42c4ccc(O)cc4Oc4cc(O)ccc42)CC[C@@]3(O)[C@H]1C5 with opioid receptor (rat brain synaptosomal plasma membranes) (Rattus norvegicus).
## Output 0.671

----------
Can you tell me IC50 for the items I'm about to list?
target: opioid receptor (rat brain synaptosomal plasma membranes) (Rattus norvegicus); construct: from rat brain synaptosomal plasma membranes; from tissue; host or cells: rat brain synaptosomal plasma membranes; assay: displacement of ^3H-dihydromorphine (^3H-DHM) from rat brain synaptosomal plasma membranes; assay type: binding; details: determined graphically; rat brain synaptosomal plasma membranes
One number for each entry, in nM.

I have 2 compounds here; please give me IC50 for each one.
1. C=CCN1CC[C@]23c4c5ccc(O)c4O[C@H]2C(=NNC(=S)Nc2ccc4c(c2)C(=O)OC42c4ccc(O)cc4Oc4cc(O)ccc42)CC[C@@]3(O)[C@H]1C5
2. CN1CC[C@]23c4c5ccc(O)c4O[C@H]2C(=NNC(=S)Nc2ccc4c(c2)C(=O)OC42c4ccc(O)cc4Oc4cc(O)ccc42)CC[C@@]3(O)[C@H]1C5

## Output
[20, 20]

----------
target: opioid receptor sites, ^3H-DALE indicator ligand (Rattus norvegicus); construct: from rat brain synaptosomal plasma membranes; b86 says only 'a substrate'); test: site selectivity analysis (Terenius and Wahlstrom), displacement of labeled ^3H-DALE in presence of cold DHM
Sequence (P33533 whole entry): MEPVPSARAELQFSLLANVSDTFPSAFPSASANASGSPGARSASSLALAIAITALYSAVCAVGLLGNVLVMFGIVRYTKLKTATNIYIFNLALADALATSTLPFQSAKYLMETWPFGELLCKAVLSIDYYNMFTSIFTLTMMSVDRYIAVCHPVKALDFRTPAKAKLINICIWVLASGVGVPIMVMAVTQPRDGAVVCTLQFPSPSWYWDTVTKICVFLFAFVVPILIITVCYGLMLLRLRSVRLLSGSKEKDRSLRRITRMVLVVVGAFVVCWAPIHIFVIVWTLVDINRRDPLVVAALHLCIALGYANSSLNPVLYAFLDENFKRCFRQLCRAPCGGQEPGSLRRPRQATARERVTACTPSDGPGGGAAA
test-readout: pIC50
Give bare numbers, as −log10 of the molar value.

## Input Report pIC50 for C=CCN1CC[C@]23c4c5ccc(O)c4O[C@H]2C(=NNC(=S)Nc2ccc4c(c2)C(=O)OC42c4ccc(O)cc4Oc4cc(O)ccc42)CC[C@@]3(O)[C@H]1C5 please.
## Output 7.77
